- System: NCI-H522
- protocol.details: NCI tumour cell line growth inhibition, 48 h
Active and inactive are the calls of the source. No stated cut-off is given here; in the data, active = GI50 up to about 1.1 µM and inactive = higher.
experimental.readout: GI50

Example cases with answers are listed next.
- compound: "c1ccc(CCNCc2ccco2)nc1"
  GI50: "> 100 µM (inactive)"
- compound: "O=C1c2cc3c(cc2[C@@H]2NC4CCCC14O2)OCO3 (stereo partly specified)"
  GI50: "> 100 µM (inactive)"
- compound: "N#CC(NNC(=O)c1c(Cl)c(Cl)c(Cl)c(Cl)c1-c1nc2cc(C(=O)c3ccccc3)ccc2[nH]1)c1ccccc1 (stereo unspecified)"
  GI50: "3.39 µM (inactive)"
- compound: "COC(=O)C(Cc1ccccc1)NC(=O)C(CCCNC(=N)N)NC(=O)OCc1ccccc1 (stereo unspecified)"
  GI50: "> 100 µM (inactive)"
- compound: "Nc1ncnc2c1ncn2CCCCC(=O)O"
  GI50: "> 100 µM (inactive)"
- compound: "Cc1ccc([N+](=O)[O-])c2c(NCCCN(C)C)ccnc12"
  GI50: "19.6 µM (inactive)"
- compound: "COc1ccc(NC(/C(C(=O)c2ccccc2)=C(\\O)C(=O)/C=C(\\O)c2ccccc2)c2ccc(OC)cc2)cc1 (stereo unspecified)"
  GI50: "15.2 µM (inactive)"
- compound: "COC1CCC(O)C(/C=C/[N+](=O)[O-])C1 (stereo unspecified)"
  GI50: "10.9 µM (inactive)"
- compound: "Cc1ccc(S(=O)(=O)N/N=C2/CC[C@H](C(C)(C)C)C[C@@H]2C)cc1"
  GI50: "> 10 µM (inactive)"
- compound: "CCCCCCc1cc2cc(C(=O)Nc3ccccc3F)c(=N)oc2cc1O"
  GI50: "2.69 µM (inactive)"

We now examine a further compound.
Q: Recorded GI50 for CN(C(=O)C12C3C4C1C1C2C3C41C(=O)O)C(C)(C)C (stereo unspecified) with NCI-H522, please?
Ans: > 100 µM (inactive)

* * *

- Tested on: SNB-19
- protocol.details: NCI tumour cell line growth inhibition, 48 h
Active and inactive are the calls of the source. Cut-off read from the data, not from the text of the source: active = GI50 up to about 1.1 µM and inactive = higher.
experimental.readout: GI50

Take a look at these entries with their results.
- compound: "O=c1onc2c3ccccc3ncn12"
  GI50: "> 100 µM (inactive)"
- compound: "c1c[nH]c(-c2ccc(-c3ccc[nH]3)c3nsnc23)c1"
  GI50: "> 67.6 µM (inactive)"
- compound: "O=Cc1cccc2c1Oc1c(cccc1C(=O)O)S2"
  GI50: "87.7 µM (inactive)"
- compound: "COc1ccc(/C(=N/O)c2ccccc2-c2nc3ccccc3c(=O)n2-c2ccc(S(=O)(=O)Nc3ncccn3)cc2)cc1C"
  GI50: "20.8 µM (inactive)"
- compound: "CC(=O)Nc1ccc2nc(-c3cccc(F)c3)cc(O)c2c1"
  GI50: "4.93 µM (inactive)"

Kindly give each listed record's GI50.
1. CSc1c(C)[n+]([O-])c2cc(Cl)c(Cl)cc2[n+]1[O-]
2. CC1=C(/C=C/C(C)=C/C=C/C(C)=C/CO)C(C)(C)CCC1
3. Cc1cccc2c1CC1(Cc3ccccc3C1=O)C2=O (stereo unspecified)
4. CCc1nc(N)nc(N)c1-c1ccc(N2CCNCC2)c([N+](=O)[O-])c1
5. COC(=O)[C@H]1COC(=S)N1C(=O)[C@@H](C)[C@H](O)C(C)C
6. O=C(OCc1ccccc1)N1CCNCCN(C(=O)OCc2ccccc2)CCNCC1

Ans:
["> 86.9 µM (inactive)", "22.1 µM (inactive)", "> 100 µM (inactive)", "41.5 µM (inactive)", "> 100 µM (inactive)", "47.5 µM (inactive)"]
